For each record, write down the corresponding IC50.
biological target: KRAS (WT) (Homo sapiens, UniProt P01116); construct: Biotinylated KRAS protein amino acids 1-169 (produced at Erasca); made in house; assay: In-vitro RAS-RAF binding assay (RRB), HTRF/FRET; format: biochemical; settings: Table 2, average of multiple runs of each compound; read-out: Inhibition of RAS-RAF Binding (in-vitro) KRAS (WT) IC50
Sequence (P01116 1-169 isoform P01116-2): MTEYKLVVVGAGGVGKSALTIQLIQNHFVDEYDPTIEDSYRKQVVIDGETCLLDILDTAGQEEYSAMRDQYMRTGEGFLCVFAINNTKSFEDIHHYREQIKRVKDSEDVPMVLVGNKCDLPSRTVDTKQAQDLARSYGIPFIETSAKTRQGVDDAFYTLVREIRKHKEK
Numbers only, in nM.

Field: example entries. Status: answers known.
# molecule, unit abbrev, IC50
measured = [
    ("C#Cc1c(F)ccc2cc(O)cc(-c3ncc4c(N5CC6CCC(C5)N6)nc(OC[C@@H]5CCCN5CCCOCCC(=O)O[C@H](C(=O)N5C[C@H](O)C[C@H]5C(=O)N[C@@H](C)c5ccc(-c6c(C)cccc6C(F)(F)F)cc5)C(C)(C)C)nc4c3F)c12", "nM", 98.9),
    ("Cc1ncsc1-c1ccc([C@H](C)NC(=O)[C@@H]2C[C@@H](O)CN2C(=O)[C@@H](NC(=O)CCCCN2CCC[C@H]2COc2nc(N3CC4CCC(C3)N4)c3cc(Cl)c(-c4ccc(F)c5sc(N)c(C#N)c45)c(F)c3n2)C(C)(C)C)cc1 [Example 84]", "nM", 69),
    ("C[C@H](NC(=O)[C@@H]1C[C@@H](O)CN1C(=O)[C@@H](NC(=O)CCOCCCN1CCC[C@H]1COc1nc(N2CC3CCC(C2)N3)c2cc(C(F)(F)F)c(-c3ccc(F)c4sc(N)c(C#N)c34)c(F)c2n1)C(C)(C)C)c1ccc(-c2c(F)cc(F)cc2F)cc1", "nM", 52),
]

Each molecule below has a recorded value; state its IC50.
1. Cc1cc(N)nc(-c2c(Cl)cc3c(N4CC5CCC(C4)N5)nc(OC[C@@H]4CCCN4CCCOCCC(=O)N[C@H](C(=O)N4C[C@H](O)C[C@H]4C(=O)NCc4ccc(-c5scnc5C)cc4)C(C)(C)C)nc3c2F)c1C(F)(F)F
2. Cc1ncsc1-c1ccc([C@H](CO)NC(=O)[C@@H]2C[C@@H](O)CN2C(=O)[C@@H](NC(=O)CCCCN2CCC[C@H]2COc2nc(N3CC4CCC(C3)N4)c3cc(Cl)c(-c4ccc(F)c5sc(N)c(C#N)c45)c(F)c3n2)C(C)(C)C)cc1

Solution:
[4250, 63.3]

Parameter requested: IC50. Apply to each item below.
1. C#Cc1c(F)ccc2cc(O)cc(-c3ncc4c(N5CC6CCC(C5)N6)nc(OC[C@@H]5CCCN5CCCOCCC(=O)N[C@H](C(=O)N5C[C@H](O)C[C@H]5C(=O)N[C@@H](C)c5ccc(N6CCC[C@H]6C#N)cc5)C(C)(C)C)nc4c3F)c12
2. C#Cc1c(F)ccc2cc(O)cc(-c3ncc4c(N5CC6CCC(C5)N6)nc(OC[C@@H]5CCCN5CCCOCCC(=O)N[C@H](C(=O)N5C[C@H](O)C[C@H]5C(=O)N[C@@H](C)c5ccc(-c6ccccc6C#N)cc5)C(C)(C)C)nc4c3F)c12

Solution:
1: 3.05; 2: 26.5
